What IC50 was measured for each of the following?
molecular target: human TSHR (Homo sapiens); construct: expressed in transfected cells; assay: Antagonist activity using TSH-induced cAMP production in human TSHR-stably expressing CHO cells; type: cell-based; details: human TSH 50 ng/mL
Sequence (P16473 21-764): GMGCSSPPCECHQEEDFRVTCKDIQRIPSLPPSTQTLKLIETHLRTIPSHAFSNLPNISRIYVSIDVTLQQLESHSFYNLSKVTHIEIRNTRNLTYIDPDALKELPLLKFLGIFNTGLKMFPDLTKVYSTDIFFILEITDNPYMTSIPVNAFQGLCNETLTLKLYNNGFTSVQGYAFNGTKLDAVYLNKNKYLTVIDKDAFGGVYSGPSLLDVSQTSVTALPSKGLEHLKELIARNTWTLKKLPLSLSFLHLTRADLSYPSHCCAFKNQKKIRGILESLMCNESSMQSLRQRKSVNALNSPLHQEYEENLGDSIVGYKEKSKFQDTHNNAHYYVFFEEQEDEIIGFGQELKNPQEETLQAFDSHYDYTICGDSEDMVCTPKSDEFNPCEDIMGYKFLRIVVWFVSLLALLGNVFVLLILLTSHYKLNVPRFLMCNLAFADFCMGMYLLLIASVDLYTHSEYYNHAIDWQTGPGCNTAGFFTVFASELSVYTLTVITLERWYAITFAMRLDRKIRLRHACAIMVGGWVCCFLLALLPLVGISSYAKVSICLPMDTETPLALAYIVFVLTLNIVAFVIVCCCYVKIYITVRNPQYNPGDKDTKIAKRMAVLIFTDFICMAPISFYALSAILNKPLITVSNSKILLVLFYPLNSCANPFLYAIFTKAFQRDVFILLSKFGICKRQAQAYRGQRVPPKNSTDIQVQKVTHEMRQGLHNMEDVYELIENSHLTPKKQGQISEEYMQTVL

A selection of reference data follows.
Compound	Observable	Assay Value
CN1C(=O)[C@H](NC(N)=O)Cc2cccc(OC3CCCC3)c21	IC50	0.5 to 3 µM
CN1C(=O)[C@H](NC(N)=O)Cc2ccc(F)c(Oc3ccccc3Cl)c21	IC50	< 0.5 µM
CN1C(=O)C(NC(N)=O)Cc2cccc(Oc3ncccc3C(F)(F)F)c21 (stereo not drawn)	IC50	3 to 30 µM

State recorded IC50 for all listed compounds.
1. CN1C(=O)[C@H](NC(N)=O)Cc2ccc(Cl)c(Cc3cccc(F)c3)c21
2. CN1C(=O)[C@H](NC(N)=O)Cc2cccc(Oc3cccc(C#N)c3)c21
3. CC(c1cc(F)ccc1Cl)c1cccc2c1N(C)C(=O)[C@H](NC(N)=O)C2 (stereo partly drawn)
4. CN1C(=O)[C@H](NC(N)=O)Cc2ccc(O)c(Oc3ccccc3Cl)c21
5. Cc1ccc2c(c1Oc1cc(F)ccc1Cl)N(C)C(=O)[C@H](NC(=O)C1CC1)C2
6. CN1C(=O)C(CC(N)=O)Cc2cccc(Oc3ccccc3)c21 (stereo not drawn)
7. CCc1ccc2c(c1Oc1cc(F)ccc1Cl)N(C)C(=O)[C@H](NC(N)=O)C2
8. CN1C(=O)C(NC(N)=O)Cc2cccc(Oc3cccc(C(F)(F)F)c3)c21 (stereo not drawn)

Result:
0.5 to 3 µM
3 to 30 µM
< 0.5 µM
0.5 to 3 µM
< 0.5 µM
3 to 30 µM
< 0.5 µM
0.5 to 3 µM

State recorded IC50 for all listed compounds.
1. CN1C(=O)[C@H](NC(N)=O)Cc2ccc(F)c(Cc3cc(F)ccc3Cl)c21
2. CN1C(=O)[C@H](NC(N)=O)Cc2ccc(Cl)c(Oc3cccc(F)c3)c21
3. Cc1ccc2c(c1Oc1cccc(F)c1)N(C)C(=O)[C@H](NC(N)=O)C2
4. CCc1ccccc1Oc1cccc2c1N(C)C(=O)[C@H](NC(N)=O)C2

Result:
1: < 0.5 µM; 2: < 0.5 µM; 3: < 0.5 µM; 4: 0.5 to 3 µM

State recorded IC50 for all listed compounds.
1. CN1C(=O)[C@H](NC(N)=O)Cc2ccc(C(F)(F)F)c(Oc3ccccc3F)c21
2. CN1C(=O)[C@H](NC(N)=O)Cc2ccc(Cl)c(Oc3ccccc3F)c21
3. Cc1ccc2c(c1Oc1cc(F)ccc1Cl)N(C)C(=O)[C@H](NC(N)=O)C2

Result:
["< 0.5 µM", "< 0.5 µM", "< 0.5 µM"]
